Test: Density by dry densitometer
Format: physicochemical
Settings: dry densitometer AccuPyc II 1340-10CC
TEST READOUT: Density (g/mL)

{"COMPOUND": "C=CC(=O)OCC(Cn1c2ccc3ccccc3c2c2c3ccccc3ccc21)OC(=O)C=C (stereo not drawn)", "RESULT UNITS": "g/mL", "QUANTITATIVE RESULT": 1.22}
{"COMPOUND": "C=CC(=O)OCCOc1cc(OCCOC(=O)C=C)cc(-n2c3ccc4ccccc4c3c3c4ccccc4ccc32)c1", "RESULT UNITS": "g/mL", "QUANTITATIVE RESULT": 1.27}
{"COMPOUND": "C=CC(=O)OCCn1c2ccccc2c2ccc3ccccc3c21", "RESULT UNITS": "g/mL", "QUANTITATIVE RESULT": 1.31}
{"COMPOUND": "C=CC(=O)OCCOc1cc(OCCOC(=O)C=C)cc(-n2c3ccccc3c3c4ccccc4ccc32)c1", "RESULT UNITS": "g/mL", "QUANTITATIVE RESULT": 1.26}
{"COMPOUND": "C=C(C)C(=O)OCC(Cn1c2ccc3ccccc3c2c2c3ccccc3ccc21)OC(=O)C(=C)C (stereo not drawn)", "RESULT UNITS": "g/mL", "QUANTITATIVE RESULT": 1.26}
{"COMPOUND": "C=CC(=O)Oc1cc(OC(=O)C=C)cc(-n2c3ccc4ccccc4c3c3c4ccccc4ccc32)c1", "RESULT UNITS": "g/mL", "QUANTITATIVE RESULT": 1.31}
{"COMPOUND": "C=CC(=O)Oc1cc(Cn2c3ccc4ccccc4c3c3c4ccccc4ccc32)cc(OC(=O)C=C)c1", "RESULT UNITS": "g/mL", "QUANTITATIVE RESULT": 1.3}
{"COMPOUND": "C=CC(=O)OCCn1c2ccccc2c2c3ccccc3ccc21", "RESULT UNITS": "g/mL", "QUANTITATIVE RESULT": 1.3}
{"COMPOUND": "C=CC(=O)Oc1cc(CCn2c3ccc4ccccc4c3c3c4ccccc4ccc32)cc(OC(=O)C=C)c1", "RESULT UNITS": "g/mL", "QUANTITATIVE RESULT": 1.29}
{"COMPOUND": "C=CC(=O)OCCOc1cc(Cn2c3ccc4ccccc4c3c3c4ccccc4ccc32)cc(OCCOC(=O)C=C)c1", "RESULT UNITS": "g/mL", "QUANTITATIVE RESULT": 1.29}
{"COMPOUND": "C=CC(=O)OCCn1c2ccccc2c2ccccc21 [(11-1), acrylic acid 2-(9H-carbazol-9-yl) ethyl, reference compound]", "RESULT UNITS": "g/mL", "QUANTITATIVE RESULT": 1.21}
{"COMPOUND": "C=CC(=O)OCCn1c2ccc3ccccc3c2c2c3ccccc3ccc21", "RESULT UNITS": "g/mL", "QUANTITATIVE RESULT": 1.22}

Ref: patent US20220289678A1
